TEST TARGET: T1, huIL-17RA-FLAG-polyHis (human, UniProt Q96F46 33-320)
T1 construct: also called IL-17RA-FLAG-pHis; wild-type IL-17RA
MEASUREMENT PROTOCOL: binning; IL-17RA held by bead mAb N

{"BINDER": "AMH21/AML21 (antibody, IgG2, V domains shown, human mAb from IgG2 XenoMouse mice; also called AM-21; antibody Q) VH: EVQLVESGGGSVQPGGSLRLSCAASGFTFSSYSMNWVRQAPGKGLEWVSIISSRSSIIHYADSVKGRFTISRDNAKNSLYLQMNSLRDEDTAVYYCARPKVGGGMDVWGQGTTVTVSS VL: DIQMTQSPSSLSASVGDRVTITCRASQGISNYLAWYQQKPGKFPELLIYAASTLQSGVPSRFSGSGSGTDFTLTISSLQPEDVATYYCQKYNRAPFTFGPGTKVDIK", "normalized MFI": 39}
{"BINDER": "AMH20/AML20 (antibody, IgG2, V domains shown, human mAb from IgG2 XenoMouse mice; also called AM-20; antibody R) VH: EVQLVESGGGLVQPGGSLRLSCAASGFTFSSYSMNWVRQAPGKGLEWVSFISARSSTIYYADSVKGRFTISRDNAKNSLYLQMNSLRDEDTAVYYCARPKVGGGMDVWGQGTTVTVSS VL: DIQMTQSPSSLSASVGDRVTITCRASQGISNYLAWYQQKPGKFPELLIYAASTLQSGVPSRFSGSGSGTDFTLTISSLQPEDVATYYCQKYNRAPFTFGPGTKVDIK", "normalized MFI": 24}
{"BINDER": "AMH12/AML12 (antibody, IgG2, V domains shown, human mAb from IgG2 XenoMouse mice; also called AM-12; antibody M) VH: QVQLVQSGAEVKKPGASVKVSCKASGYTLTSYGISWVRQAPGQGLEWMGWISTYKGNTNYAQKLQGRVTMTTDTSTSTAYMELRSLRSDDTAVYYCARKQLVFDYWGQGTLVTVSS VL: EIVMTQSPATLSVSPGERATLSCRASQSISSSLAWYQQKPGQAPRLLIYGASTRATGIPARFSGSGSGTEFTLTISSLQSENFAVYYCQQYDNWPLTFGGGTKVEIK", "normalized MFI": 11}
{"BINDER": "AMH7/AML7 (antibody, IgG2, V domains shown, human mAb from IgG2 XenoMouse mice; also called AM-7; antibody D) VH: QVQLVQSGAEVKKPGASVKVSCKASGYTLTRYGISWVRQAPGQGLEWMGWISAYNGNTNYAQKLQGRVTMTTDTSTSTAYMELRSLRSDDTAVYYCARRDYDILTGYYNGFDPWGQGTLVTVSS VL: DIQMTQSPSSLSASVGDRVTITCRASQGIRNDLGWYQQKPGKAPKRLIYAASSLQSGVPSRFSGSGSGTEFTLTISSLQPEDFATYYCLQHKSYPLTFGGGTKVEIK", "normalized MFI": 3840}
{"BINDER": "AMH11/AML11 (antibody, IgG2, V domains shown, human mAb from IgG2 XenoMouse mice; also called AM-11; antibody A) VH: QVQLVESGGGVVQPGRSLRLSCATSGITFSSYGMHWVRQAPGKGLEWVAVIWYDGSNKYYADSVKGRFTISRDNSKNTLYLQMNSLRAEDTAVYYCARDTKDYWGQGTLVTVSS VL: EIVMTQSPATLSVSPGERATLSCRASQSVSSNLAWYQQKPGQAPRLLIYGASTRAAGIPARFSGGGSGTAFTLTISNLQSEDFAVYYCQHYINWPKWTFGQGTKVDIK", "normalized MFI": 2650}
{"BINDER": "AMH10/AML10 (antibody, IgG2, V domains shown, human mAb from IgG2 XenoMouse mice; also called AM-10; antibody F) VH: QVQLQESGPGLVKPSQTLSLTCTVSGGSISSGGYYWSWIRQHPGKGLEWIGYIYFSGSAYYNPSLKSRVAISVDTSKNQFSLKLSSVTAADTAVYYCAREYYDSSGYPDAFDIWGQGTMVTVSS VL: DIQMTQSPSSVSASVGDRVTITCRASQGIRSWLAWYQQKPGKAPKLLIFAASSLQSGVPSRFSGSGSGTEFTLTISSLQPEDFATYYCQQANNFPRTFGQGTKVEIK", "normalized MFI": 1510}
{"BINDER": "AMH6/AML6 (antibody, IgG2, V domains shown, human mAb from IgG2 XenoMouse mice; also called AM-6; antibody E) VH: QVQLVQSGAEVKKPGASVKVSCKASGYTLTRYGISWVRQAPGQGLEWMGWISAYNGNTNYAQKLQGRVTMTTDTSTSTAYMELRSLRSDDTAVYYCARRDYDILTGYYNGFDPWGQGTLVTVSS VL: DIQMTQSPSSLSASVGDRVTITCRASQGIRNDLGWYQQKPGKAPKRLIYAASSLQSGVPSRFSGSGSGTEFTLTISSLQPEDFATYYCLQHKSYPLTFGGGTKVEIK", "normalized MFI": 2410}

Every entry's value here was drawn from patent US20120251547A1.
